- STUDY SYSTEM: Inhibitor of nuclear factor kappa-B kinase subunit beta (Homo sapiens)
- PROTOCOL DESCRIPTION: Binding affinity to human IKK2 in PBMC assessed as half life by cell-based assay
Below, each entry is listed with its recorded T1/2.

Some compounds with recorded T1/2:
CN(C)CCCn1cc(CN2CCN(c3cc(C(=O)Nc4ccc5c(c4)-c4c(c(C(N)=O)nn4-c4ccc(F)cc4)CC5)c(Cl)cn3)CC2)cn1
> 4 h
COCCCn1cc(CN2CCN(c3cc(C(=O)Nc4ccc5c(c4)-c4c(c(C(N)=O)nn4-c4ccc(F)cc4)CC5)c(Cl)cn3)CC2)cn1
> 4 h
COCCOC(=O)Cn1cc(CN2CCN(c3cc(C(=O)Nc4ccc5c(c4)-c4c(c(C(N)=O)nn4-c4ccc(F)cc4)CC5)c(Cl)cn3)CC2)cn1
> 4 h

Here's the next entry for you.
[in] Return reported T1/2; argument: CSCCNC(=O)Cn1cc(CN2CCN(c3cc(C(=O)Nc4ccc5c(c4)-c4c(c(C(N)=O)nn4-c4ccc(F)cc4)CC5)c(Cl)cn3)CC2)cn1
[out] 4 h
